assay: Stability in simulated gastric fluid (SGF), RP-HPLC; format: in vitro ADME; conditions: 37 °C, read-out: unmetabolized peptide remaining (remained stable)
Non-standard residues stand in square brackets, D forms with d. Residues, ends and D or L forms follow the SMILES beside them.
recorded.endpoint: remaining at 24 h, 150 µM

* CC(C)C[C@@H](NC(=O)[C@H](NC(=O)[C@H]1CCCN1)[C@H](C)O)C(=O)N[C@H](Cc1c[nH]cn1)C(=O)N[C@@H](C(=O)N[C@H](Cc1c[nH]cn1)C(=O)N[C@H](CC(N)=O)C(=O)N[C@H](CCCNC(=N)N)C(=O)N[C@H](CCCNC(=N)N)C(=O)N[C@H](CCCNC(=N)N)C(=O)N[C@H](CCCNC(=N)N)C(=O)N[C@H](CCCNC(=N)N)C(N)=O)[C@H](C)O [RD2, ptlhthnrrrrr] (H-[dP][dT][dL][dH][dT][dH][dN][dR][dR][dR][dR][dR]-NH2) | ≥ 97%

----------
target: UniProtKB P08684; assay: CYP isoform inhibition in human liver microsomes (Cyprotex); conditions: human, human liver microsomes
Sequence (P08684 whole entry, canonical isoform): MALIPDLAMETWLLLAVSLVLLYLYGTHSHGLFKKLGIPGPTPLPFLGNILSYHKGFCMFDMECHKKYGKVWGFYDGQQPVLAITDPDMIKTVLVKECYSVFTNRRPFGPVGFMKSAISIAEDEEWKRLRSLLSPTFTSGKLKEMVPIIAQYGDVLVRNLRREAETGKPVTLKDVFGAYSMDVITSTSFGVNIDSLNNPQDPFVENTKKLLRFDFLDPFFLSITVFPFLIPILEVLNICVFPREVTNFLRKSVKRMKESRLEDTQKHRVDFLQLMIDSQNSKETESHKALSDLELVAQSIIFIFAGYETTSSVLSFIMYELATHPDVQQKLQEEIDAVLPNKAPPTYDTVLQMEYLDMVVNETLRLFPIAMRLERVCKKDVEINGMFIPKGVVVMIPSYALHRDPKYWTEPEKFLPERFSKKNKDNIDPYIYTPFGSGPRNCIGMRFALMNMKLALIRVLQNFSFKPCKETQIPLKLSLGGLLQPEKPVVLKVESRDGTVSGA
Non-standard residues stand in square brackets, D forms with d. Residues, ends and D or L forms follow the SMILES beside them.
recorded.endpoint: inhibition at 25 µM (%)

• CC(C)C[C@@H](NC(=O)[C@H](NC(=O)[C@H]1CCCN1)[C@H](C)O)C(=O)N[C@H](Cc1c[nH]cn1)C(=O)N[C@@H](C(=O)N[C@H](Cc1c[nH]cn1)C(=O)N[C@H](CC(N)=O)C(=O)N[C@H](CCCNC(=N)N)C(=O)N[C@H](CCCNC(=N)N)C(=O)N[C@H](CCCNC(=N)N)C(=O)N[C@H](CCCNC(=N)N)C(=O)N[C@H](CCCNC(=N)N)C(N)=O)[C@H](C)O [RD2, ptlhthnrrrrr] (H-[dP][dT][dL][dH][dT][dH][dN][dR][dR][dR][dR][dR]-NH2) = -12

----------
target: CYP2C19 (Homo sapiens); experiment: CYP isoform inhibition in human liver microsomes (Cyprotex); details: human, human liver microsomes
Sequence (P33261 whole entry, canonical isoform): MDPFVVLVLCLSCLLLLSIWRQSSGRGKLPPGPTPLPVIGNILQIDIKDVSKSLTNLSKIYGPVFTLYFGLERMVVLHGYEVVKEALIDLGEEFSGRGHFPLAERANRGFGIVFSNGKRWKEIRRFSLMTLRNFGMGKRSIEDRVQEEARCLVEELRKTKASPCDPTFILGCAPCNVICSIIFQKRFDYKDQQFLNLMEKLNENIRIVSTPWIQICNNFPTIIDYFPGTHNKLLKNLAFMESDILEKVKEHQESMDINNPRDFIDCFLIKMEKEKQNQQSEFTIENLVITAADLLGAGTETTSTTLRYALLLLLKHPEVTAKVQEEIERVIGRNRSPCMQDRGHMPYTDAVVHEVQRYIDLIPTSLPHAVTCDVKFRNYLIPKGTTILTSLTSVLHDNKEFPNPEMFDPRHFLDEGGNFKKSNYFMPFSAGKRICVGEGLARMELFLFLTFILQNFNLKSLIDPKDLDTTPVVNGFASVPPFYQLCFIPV
Non-standard residues stand in square brackets, D forms with d. Residues, ends and D or L forms follow the SMILES beside them.
recorded.endpoint: inhibition at 0.25 µM

- CC(C)C[C@@H](NC(=O)[C@H](NC(=O)[C@H]1CCCN1)[C@H](C)O)C(=O)N[C@H](Cc1c[nH]cn1)C(=O)N[C@@H](C(=O)N[C@H](Cc1c[nH]cn1)C(=O)N[C@H](CC(N)=O)C(=O)N[C@H](CCCNC(=N)N)C(=O)N[C@H](CCCNC(=N)N)C(=O)N[C@H](CCCNC(=N)N)C(=O)N[C@H](CCCNC(=N)N)C(=O)N[C@H](CCCNC(=N)N)C(N)=O)[C@H](C)O [RD2, ptlhthnrrrrr] (H-[dP][dT][dL][dH][dT][dH][dN][dR][dR][dR][dR][dR]-NH2): 7.64%
